Exercise: for every item that follows, state its recorded IC50.
Give just the numeric value; nM need not be written.

Find the measured IC50: item Cc1cc(Nc2ncc3c(=O)n4n(c3n2)-c2cccc(n2)C(C)(O)CCC=CC4)ccc1OC1CN(C)[C@H]1C (stereo partly drawn) , target or system YES1 kinase (Homo sapiens).
18.8

Find the measured IC50: item [2H]C1(Oc2ccc(Nc3ncc4c(=O)n5n(c4n3)-c3cccc(n3)[C@](C)(O)CCC=CC5)cc2C)CCN(C)CC1 (single isomer, unassigned) [Compound 172A] , target or system YES1 kinase (Homo sapiens).
5.8

====

- Experimental protocol: Solid-state stability study of polymorphs
- Assay type: physicochemical
- Condition notes: HPLC purity before storage
Parameter measured: Initial purity (%)
Give just the numeric value; % need not be written.

Reported Initial purity (%), compound Cc1cc(Nc2ncc3c(=O)n4n(c3n2)-c2cccc(n2)[C@](C)(O)CC/C=C\C4)ccc1OC1CCN(C)CC1 [Crystal form D of compound IE] : ____
97.79

Reported Initial purity (%), compound Cc1cc(Nc2ncc3c(=O)n4n(c3n2)-c2cccc(n2)[C@](C)(O)CC/C=C\C4)ccc1OC1CCN(C)CC1 [Crystal form A of compound IE] : ____
98.08

Reported Initial purity (%), compound Cc1cc(Nc2ncc3c(=O)n4n(c3n2)-c2cccc(n2)[C@](C)(O)CC/C=C\C4)ccc1OC1CCN(C)CC1 [Crystal form C of compound IE] : ____
98.74

Reported Initial purity (%), compound Cc1cc(Nc2ncc3c(=O)n4n(c3n2)-c2cccc(n2)[C@](C)(O)CC/C=C\C4)ccc1OC1CCN(C)CC1 [Crystal form B of compound IE] : ____
97.97
